testProtocol: FIH study 67856633LYM1001 plasma pharmacokinetics
Type: in vivo, human
details: human, plasma, oral, 400 mg, Cycle 2 Day 1, 200 mg capsule, cohort 2 × 200 mg; mean; read-out: AUCτ
endpointLabel: AUC

INSERT INTO measurements (structuresmiles, endpointlabel, valuemeasured) VALUES
  ('O=C(Nc1ccnc(C(F)(F)F)c1)c1cnn(-c2cccc3c(=O)[nH]ccc23)c1C(F)(F)F', 'AUC', '824 µg·h/mL');

====

testProtocol: Serum and tumor levels after multiple oral doses in male OCI-LY3 tumor-bearing NSG mice
Format: in vivo
details: male, NSG, mouse, serum, oral, 10 mg/kg, 10 mg/kg twice daily PO, Day 1 following first dose, 12 h post dose; mean (SD); read-out: Serum concentration
endpointLabel: concentration at 12 h (ng/mL)

INSERT INTO assay_data (structuresmiles, endpointunit, valuemeasured) VALUES
  ('O=C(Nc1ccnc(C(F)(F)F)c1)c1cnn(-c2cccc3c(=O)[nH]ccc23)c1C(F)(F)F', 'ng/mL', 2440);
